System: Escherichia coli ATCC 10536 | Read-out: log10 of MIC
Note: values are log10 of MIC expressed in µg/mL.

Record CO/N=C(\C(=O)N[C@@H]1C(=O)N2C(C(=O)[O-])=C(CSc3cc(N)[n+](C)c(N)n3)CS[C@H]12)c1csc(N)n1 , field log10 of MIC: -1.20

Quick note, log10 of MIC for CCO/N=C(\C(=O)N[C@@H]1C(=O)N2C(C(=O)[O-])=C(CSc3cc(N)[n+](CC)c(N)n3)CS[C@H]12)c1nsc(N)n1 landed at -0.89

# log10 of MIC (compound: CC(O/N=C(\C(=O)N[C@@H]1C(=O)N2C(C(=O)[O-])=C(CSc3cc(N)nc(N)[n+]3C)CS[C@H]12)c1csc(N)n1)C(=O)O (stereo partly shown) ) is -0.89

Record CC[n+]1c(N)cc(SCC2=C(C(=O)[O-])N3C(=O)[C@@H](NC(=O)/C(=N\OC(C)C(=O)O)c4csc(N)n4)[C@H]3SC2)nc1N (stereo partly shown) . Reported log10 of MIC: -0.89

Short answer for CC(O/N=C(\C(=O)N[C@@H]1C(=O)N2C(C(=O)[O-])=C(CSc3cc(N)[n+](C)c(N)n3)CS[C@H]12)c1csc(N)n1)C(=O)O (stereo partly shown) : log10 of MIC was -0.89

In plain terms, CC(C)(O/N=C(\C(=O)NC1C(=O)N2C(C(=O)[O-])=C(CSc3nc(N)nc(N)[n+]3-c3ccccc3)CS[C@H]12)c1csc(N)n1)C(=O)O (stereo partly shown) has a documented log10 of MIC of -0.89

Reported log10 of MIC of CC[n+]1c(SCC2=C(C(=O)[O-])N3C(=O)[C@@H](NC(=O)/C(=N\OC)c4csc(N)n4)[C@H]3SC2)cc(N)nc1N : -1.20

log10 of MIC measured on CCO/N=C(\C(=O)N[C@@H]1C(=O)N2C(C(=O)[O-])=C(CSc3cc(N)nc(N)[n+]3C)CS[C@H]12)c1nsc(N)n1 = -0.89

For record C[n+]1c(N)nc(N)nc1SCC1=C(C(=O)[O-])N2C(=O)C(NC(=O)/C(=N\OC(C)(C)C(=O)O)c3csc(N)n3)[C@H]2SC1 (stereo partly shown) the listed log10 of MIC is -1.20

Please fill in: log10 of MIC reported for CCO/N=C(\C(=O)N[C@@H]1C(=O)N2C(C(=O)[O-])=C(CSc3cc(N)[n+](C)c(N)n3)CS[C@H]12)c1nsc(N)n1 = -0.89

GET /value?item= CO/N=C(\C(=O)N[C@@H]1C(=O)N2C(C(=O)O)=C(COC(C)=O)CS[C@H]12)c1csc(N)n1 [Cefotaxime, reference compound] &field=log10 of MIC returns -1.51

Field log10 of MIC (entry C#CCO/N=C(\C(=O)N[C@@H]1C(=O)N2C(C(=O)[O-])=C(CSc3cc(N)[n+](C)c(N)n3)CS[C@H]12)c1csc(N)n1 ) reads -0.30

Sample C#CCO/N=C(\C(=O)N[C@@H]1C(=O)N2C(C(=O)[O-])=C(CSc3cc(N)[n+](CC)c(N)n3)CS[C@H]12)c1csc(N)n1 ; log10 of MIC observed: -0.60

* * *

Can you tell me MIC for the items I'm about to list?
tested on: Staphylococcus aureus ATCC 6538p; assay: Antibacterial activity MIC, two-fold agar dilution; type: cell-based; settings: ATCC6538P; Staphylococcus aureus ATCC 6538p; Muller-Hinton agar, 37° C., 20 hours; read-out: Antibacterial Activity MIC
Give the value, in units of µg/mL, as a plain number.

For C[n+]1c(SCC2=C(C(=O)[O-])N3C(=O)[C@@H](NC(=O)/C(=N\OC(C)(C)C(=O)O)c4csc(N)n4)[C@H]3SC2)cc(N)nc1N the compound record lists MIC as 8

The compound listed as CCO/N=C(\C(=O)N[C@@H]1C(=O)N2C(C(=O)[O-])=C(CSc3cc(N)[n+](CC)c(N)n3)CS[C@H]12)c1nsc(N)n1 shows MIC equal to 0.5

In plain terms, CC[n+]1c(SCC2=C(C(=O)[O-])N3C(=O)[C@@H](NC(=O)/C(=N\OC)c4csc(N)n4)[C@H]3SC2)cc(N)nc1N has a documented MIC of 2

Quick note, MIC for C#CCO/N=C(\C(=O)N[C@@H]1C(=O)N2C(C(=O)[O-])=C(CSc3cc(N)[n+](CC)c(N)n3)CS[C@H]12)c1csc(N)n1 landed at 0.5

Entry CCO/N=C(\C(=O)N[C@@H]1C(=O)N2C(C(=O)[O-])=C(CSc3cc(N)nc(N)[n+]3C)CS[C@H]12)c1nsc(N)n1 , MIC reported as 2

The compound listed as CC[n+]1c(N)cc(SCC2=C(C(=O)[O-])N3C(=O)[C@@H](NC(=O)/C(=N\OCC(=O)O)c4csc(N)n4)[C@H]3SC2)nc1N has a reported MIC of 4

Briefly, MIC measured for CC[n+]1c(N)cc(SCC2=C(C(=O)[O-])N3C(=O)[C@@H](NC(=O)/C(=N\OC(C)(C)C(=O)O)c4csc(N)n4)[C@H]3SC2)nc1N : 8

For CC[n+]1c(N)cc(SCC2=C(C(=O)[O-])N3C(=O)[C@@H](NC(=O)/C(=N\OC(C)C(=O)O)c4csc(N)n4)[C@H]3SC2)nc1N (stereo partly drawn) the compound record lists MIC as 2

The reported MIC of the compound CC(C)(O/N=C(\C(=O)NC1C(=O)N2C(C(=O)[O-])=C(CSc3nc(N)nc(N)[n+]3-c3ccccc3)CS[C@H]12)c1csc(N)n1)C(=O)O (stereo partly drawn) was 4

MIC recorded for this compound, C[n+]1c(N)cc(SCC2=C(C(=O)[O-])N3C(=O)[C@@H](NC(=O)/C(=N\OCC(=O)O)c4csc(N)n4)[C@H]3SC2)nc1N , is 8

response.value for CCO/N=C(\C(=O)N[C@@H]1C(=O)N2C(C(=O)[O-])=C(CSc3cc(N)[n+](C)c(N)n3)CS[C@H]12)c1nsc(N)n1 (field: MIC) = 0.5

Quick note, MIC for C#CCO/N=C(\C(=O)N[C@@H]1C(=O)N2C(C(=O)[O-])=C(CSc3cc(N)[n+](C)c(N)n3)CS[C@H]12)c1csc(N)n1 landed at 0.5

The compound listed as C[n+]1c(N)nc(N)nc1SCC1=C(C(=O)[O-])N2C(=O)C(NC(=O)/C(=N\OC(C)(C)C(=O)O)c3csc(N)n3)[C@H]2SC1 (stereo partly drawn) shows MIC equal to 8

In plain terms, C[n+]1c(N)cc(SCC2=C(C(=O)[O-])N3C(=O)[C@@H](NC(=O)/C(=N\OC(C)(C)C(=O)O)c4csc(N)n4)[C@H]3SC2)nc1N has a documented MIC of 8

For reference, reported MIC for CCO/N=C(\C(=O)N[C@@H]1C(=O)N2C(C(=O)[O-])=C(CSc3cc(N)nc(N)[n+]3CC)CS[C@H]12)c1nsc(N)n1 stands at 1

Recorded MIC (compound CC[n+]1c(N)nc(N)nc1SCC1=C(C(=O)[O-])N2C(=O)C(NC(=O)/C(=N\OC(C)(C)C(=O)O)c3csc(N)n3)[C@H]2SC1 (stereo partly drawn) ): 4

Per the records, this compound ( CO/N=C(\C(=O)N[C@@H]1C(=O)N2C(C(=O)[O-])=C(CSc3cc(N)[n+](C)c(N)n3)CS[C@H]12)c1csc(N)n1 ) has MIC equal to 0.5

Per the records, this compound ( CC[n+]1c(SCC2=C(C(=O)[O-])N3C(=O)[C@@H](NC(=O)/C(=N\OC(C)C(=O)O)c4csc(N)n4)[C@H]3SC2)cc(N)nc1N (stereo partly drawn) ) has MIC equal to 8

Measured MIC, CO/N=C(\C(=O)N[C@@H]1C(=O)N2C(C(=O)[O-])=C(CSc3cc(N)nc(N)[n+]3C)CS[C@H]12)c1csc(N)n1 : 2

For reference, reported MIC for CC[n+]1c(SCC2=C(C(=O)[O-])N3C(=O)[C@@H](NC(=O)/C(=N\OC(C)(C)C(=O)O)c4csc(N)n4)[C@H]3SC2)cc(N)nc1N stands at 4

Record CC(O/N=C(\C(=O)N[C@@H]1C(=O)N2C(C(=O)[O-])=C(CSc3cc(N)[n+](C)c(N)n3)CS[C@H]12)c1csc(N)n1)C(=O)O (stereo partly drawn) , field MIC: 4

Notebook: CO/N=C(\C(=O)N[C@@H]1C(=O)N2C(C(=O)O)=C(COC(C)=O)CS[C@H]12)c1csc(N)n1 [Cefotaxime, reference compound] , MIC read as 4

The compound listed as CC[n+]1c(N)cc(SCC2=C(C(=O)[O-])N3C(=O)[C@@H](NC(=O)/C(=N\OC)c4csc(N)n4)[C@H]3SC2)nc1N has a reported MIC of 0.25

For this compound ( CC(O/N=C(\C(=O)N[C@@H]1C(=O)N2C(C(=O)[O-])=C(CSc3cc(N)nc(N)[n+]3C)CS[C@H]12)c1csc(N)n1)C(=O)O (stereo partly drawn) ), measured MIC is 4
